system: A549; assay: Cytotoxicity against human A549 cells after 24 to 72 hrs by MTT assay; format: functional, cell-based
measured endpoint: IC50 (nM)
Numbers only, in nM.

CCC1=C[C@@H]2CN(C1)Cc1c([nH]c3ccccc13)[C@@](C(=O)OC)(c1cc3c(cc1OC)N(C)[C@H]1[C@@](O)(CNC(=O)c4ccc(F)cc4)[C@H](OC(C)=O)[C@]4(CC)C=CCN5CC[C@]31[C@@H]54)C2 ... 6.6
CCC1=C[C@@H]2CN(C1)Cc1c([nH]c3ccccc13)[C@@](C(=O)OC)(c1cc3c(cc1OC)N(C)[C@H]1[C@@](O)(CNC(=O)Cc4ccccc4)[C@H](OC(C)=O)[C@]4(CC)C=CCN5CC[C@]31[C@@H]54)C2 ... 16.2
CCC(=O)NC[C@@]1(O)[C@H](OC(=O)CC)[C@]2(CC)C=CCN3CC[C@@]4(c5cc([C@@]6(C(=O)OC)C[C@@H]7C=C(CC)CN(Cc8c6[nH]c6ccccc86)C7)c(OC)cc5N(C)[C@@H]14)[C@@H]32 ... 12

Proceed to the following item.
Record for "CCC1=C[C@@H]2CN(C1)Cc1c([nH]c3ccccc13)[C@@](C(=O)OC)(c1cc3c(cc1OC)N(C)[C@H]1[C@@](O)(CNC(=O)c4c(F)cccc4F)[C@H](OC(C)=O)[C@]4(CC)C=CCN5CC[C@]31[C@@H]54)C2" under target or system A549: IC50 reported as 7.9
